B1: Dystrobrevin alpha, residues 235 to 294; numbered along this chain, Q9Y4J8 (parent)
chain: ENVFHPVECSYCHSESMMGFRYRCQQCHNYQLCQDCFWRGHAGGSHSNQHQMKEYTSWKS

Variants of: B1
test: abundance fitness (aPCA) (normalised: wild type 0, dead -1); higher = more abundant; growth selection in yeast, the domain comes from the species named
measurement setup: Homo sapiens
I would appreciate it if you labelled entries satisfied when abundance fitness is -0.09 or higher, otherwise not satisfied.

Below are worked cases with known answers.
[[record]]
mutation_descriptor = "Q31V"
class_assignment = "satisfied"

[[record]]
mutation_descriptor = "W58V"
class_assignment = "satisfied"

[[record]]
mutation_descriptor = "V3K"
class_assignment = "satisfied"

[[record]]
mutation_descriptor = "D35A"
class_assignment = "not satisfied"

[[record]]
mutation_descriptor = "G44T"
class_assignment = "not satisfied"


Check if abundance fitness >= -0.09 (inclusive). Item: H41I not satisfied

Next record, please: M17C satisfied

Next record, please: H46D not satisfied

Next record, please: N29C satisfied

Next record, please: G40D not satisfied

Next record, please: N2T satisfied
